Method description: folding stability dG unfold (combined trypsin and chymotrypsin); higher = more stable
Value kind: folding stability dG unfold

{"columns": ["Chain", "Reading"],
 "data": [
  ["SAGGSAGGSAGMTFVITDKNGKETTISLEEAAKLLGIPVEEITEEELKEFLEKKVKTIEKISSAGGSAGGSA [r18_403_JUSTAS]", "2.18 kcal/mol"]
]}

Problem: For the sequence shown here, SSMTLVTVEMEITLRTPEGGSETLKRTFEREVSPDDPAAVEAAVEAAKEEIREAHPDVVEVRVVKVDTALSA [r9_436_JUSTAS] , give the reported folding stability dG unfold.
Solution: 4.41 kcal/mol

Problem: Can you check SAGGSAGGEFTVTVTIEKDEEKGFIRIPISVSLPSSAFVPKTVEFLEFAKTLKENLPELEVDASSAGGSAGG [r6_102_TrMRF] next?
Solution: 0.679 kcal/mol

Problem: Now give it for GKVLAVPVSYDPETGTVTVLEVKDTGTTLATLKPLPVVDISREELEKLAKGLAEENPELKELAEKLVEELAS [r1_330_TrMRF] too.
Solution: -0.197 kcal/mol

Problem: Then what about the sequence SAGGSAMSVDPVGERTTITILYKDKPVTVPTGPLEEVEREVAAVLEEIEAKTGRKISPDTEVSFVPSAGGSA [r15_496_JUSTAS] ?
Solution: 0.318 kcal/mol

Problem: And for SAGGSAGGSAGGSMKILYKLKNDNKVITSLEELKKEIESGKKVTIEEVKEIEESPDVPLSAGGSAGGSAGGS [r4_479_JUSTAS] ?
Solution: < -1 kcal/mol

Problem: Another: SATREIELPGKKITIHHNPGNNMFRITIYDPKPGKPVEIPIPANNPGMTMENIIDQIREAAKKGRPVRISAG [r14_157_TrROS]
Solution: 0.885 kcal/mol
